Tested on: ONS-76;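 also: growth inhibition of human ONS-76 cells, read out with a cell viability assay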
Test: cells
Format: functional, cell-based
Settings: Homo sapiens
Description: SANGER: Inhibition of human ONS-76 cell growth in a cell viability assay.
readout.kind: IC50

Consider the reported IC50 for these molecules:
INSERT INTO assay_data (molecule, readout_kind, assay_value) VALUES
  ('C/C(O)=C(\C#N)C(=O)Nc1cc(Br)ccc1Br', 'IC50', '> 16 µM'),
  ('O=c1cc(N2CCOCC2)oc2c(-c3cccc4c3sc3ccccc34)cccc12', 'IC50', '> 2 µM'),
  ('C[C@]1(c2nc3c(C(N)=O)cccc3[nH]2)CCCN1', 'IC50', '> 5 µM');

Consider now this further molecule.
stdin: Please report the recorded IC50 for CCn1c(-c2nonc2N)nc2cnc(Oc3cccc(NC(=O)c4ccc(OCCN5CCOCC5)cc4)c3)cc21 [GSK-269962A] .
stdout: > 2.5 µM
